The reported numbers originate from patent US20240053349A1.

- Target or test system: mouse plasma proteins (CD-1 mouse)
- Assay details: plasma protein binding, dialysis 4 h at 37 C, 2 µM, LC-MS/MS
Square brackets hold non-standard residues; d marks the D form. Primed or numbered codes have the meaning given here. Side chains are listed from the residue outwards. Ends that are not written are not given here. * marks the point of attachment. DOTA = O=C(O)CN1CCN(CC(=O)O)CCN(CC(=O)*)CCN(CC(=O)O)CC1; Butanoyl(4-(4-I-phenyl)) = O=C(CCCc1ccc(I)cc1)*; Butanoyl(4-(4-MePh)) = Cc1ccc(CCCC(=O)*)cc1; FB = fluorobenzaldehyde oxime; Folate = pteroic acid on Glu; PEG3′ = PEG3 spacer; AO = aminooxy
Measure name: Plasma % Bound (%)
Please reply with the bare figure in % and do not write the unit itself.

Input: Which Plasma % Bound value belongs to [dH][dS][dH][dT][dA]KGFK([PEG3′-DOTA]) (triazole (positions not given here); not fully specified (residue 6, N-terminus); also: triazole macrocycle via Pra and Az4, places not given here) [Fol-hshta-Lys(4-MPBA)-Gly-Phe-Lys(PEG3-DOTA) (compound #3302)] ?
Output: 96.5

Input: Which Plasma % Bound value belongs to Folate-[dH][dS][dH][dT][dA]GFK(DOTA)-OH (not fully specified (bridges); printed as folate-hshta-Gly-Phe-Lys(DOTA); also: triazole macrocycle closed by Pra and Lys(N3)/Az4 flanking hshta, not in the given chain) [Folate-hshta-G-F-K(DOTA)-OH (Indi 7327, compound #7327)] ?
Output: 40.9

Input: Which Plasma % Bound value belongs to [dH][dS][dH][dT][dA][PEG3′]K(Butanoyl(4-(4-MePh)))K(DOTA)-OH (triazole (positions not given here); not fully specified (N-terminus); printed as folate-hshta-PEG3-Lys(MPBA)-Lys(DOTA); numbers in words are those of the source; also: triazole macrocycle via Pra and Az4, places not given here) [Folate-hshta-PEG3-Lys(MPBA)-Lys(DOTA) (compound #2809)] ?
Output: 92.1

Input: Which Plasma % Bound value belongs to folate-[dH][dS][dH][dT][dA][PEG3′]GFK(DOTA) (triazole (positions not given here); numbers in words are those of the source; also: triazole macrocycle via Pra and Az4, places not given here) [Fol-hshta-PEG3-Gly-Phe-Lys(DOTA) (compound #6307)] ?
Output: 40.6

Input: Which Plasma % Bound value belongs to folate-[dH][dS][dH][dT][dA][PEG3′]K(DOTA)-OH (triazole (positions not given here); not fully specified; printed as folate-hshta-PEG3-Lys(DOTA); numbers in words are those of the source; also: triazole macrocycle via Pra and Az4, places not given here) [Fol-hshta-PEG3-Lys(DOTA) (compound #1189)] ?
Output: 29.5

Input: Which Plasma % Bound value belongs to [dH][dS][dH][dT][dA]K(Butanoyl(4-(4-MePh)))GFK(DOTA)-OH (triazole (positions not given here); not fully specified (N-terminus); also: triazole macrocycle via Pra and Az4, places not given here) [Folate-hshta-Lys(MPBA)-Gly-Phe-Lys(DOTA) (compound #6305)] ?
Output: 96.3

Input: Which Plasma % Bound value belongs to folate-[dH][dS][dH][dT][dA][PEG3′]K([AO-FB]) (triazole (positions not given here); numbers in words are those of the source; also: triazole macrocycle via Pra and Az4, places not given here) [Fol-hshta-PEG3-Lys(FB) (compound #2)] ?
Output: 20.2

Input: Which Plasma % Bound value belongs to [dH][dS][dH][dT][dA]K(Butanoyl(4-(4-I-phenyl)))GFK(DOTA) (triazole (positions not given here); not fully specified (N-terminus); also: triazole macrocycle via Pra and Az4, places not given here) [Folate-hshta-Lys(IPBA)-Gly-Phe-Lys(DOTA) (compound #1307)] ?
Output: 99.6

Input: Which Plasma % Bound value belongs to folate-[dH][dS][dH][dT][dA]K(Butanoyl(4-(4-I-phenyl)))MVK(DOTA)-OH (triazole (positions not given here); not fully specified; also: triazole macrocycle via Pra and Az4, places not given here) [Folate-hshta-Lys(IPBA)-M-V-Lys(DOTA) (compound #1306)] ?
Output: 97.1
